Test system: Phakopsora pachyrhizi containing the amino acid substitution F129L in the mitochondrial cytochrome b protein
Assay: Use Example 1: protective control of soybean rust on soybeans (PHAKPA P2)
Format: in vivo
Conditions: inoculated 2 days after spraying, 4 ppm, % diseased leaf area
Procedure: The compound was dissolved in a mixture of acetone and/or dimethylsulfoxide and the wetting agent/emulsifier Wettol, which is based on ethoxylated alkylphenoles, in a ratio (volume) solvent-emulsifier of 99 to 1 to give a total volume of 5 ml. Subsequently, water was added to total volume of 100 ml. This stock solution was then diluted with the described solvent-emulsifier-water mixture to the final concentration given in the tables below. Use Example 1. […]
# % PHAKPA (F129L) Disease level P2 at 4 ppm annotations
Respond with the bare value in %.

Some molecules with recorded % PHAKPA (F129L) Disease level P2 at 4 ppm:
CNC(=O)/C(=N/OC)c1cccc(Cl)c1CO/N=C(\COC)c1c(F)cc(Cl)cc1F: 21
CCOC/C(=N\OCc1c(Cl)cccc1/C(=N\OC)C(=O)OC)c1ccc(Cl)cc1: 95
CO/C=C(/C(=O)OC)c1cccc(Cl)c1CO/N=C(\COC)c1cc(F)c(F)c(F)c1: 10
CO/C=C(/C(=O)OC)c1cccc(Cl)c1CO/N=C(\COC)c1c(F)cc(F)cc1F: 2
COC/C(=N\OCc1c(Cl)cccc1/C(=N\OC)C(=O)OC)c1ccc(Cl)c(Cl)c1: 17
CO/C=C(/C(=O)OC)c1cccc(Cl)c1CO/N=C(\COC)c1ccc(Cl)c(Cl)c1: 31
CO/C=C(/C(=O)OC)c1cccc(Cl)c1CO/N=C(\COC)c1ccc(F)c(F)c1F: 2

Record CNC(=O)/C(=N/OC)c1cccc(Cl)c1CO/N=C(\COC1CC1)c1ccc(F)cc1 , field % PHAKPA (F129L) Disease level P2 at 4 ppm: 37

----------
test system: Puccinia recondita; experiment: Use Example 4: preventative control of brown rust on wheat (PUCCRT P7); type: in vivo; conditions: inoculated seven days after spraying, 4 ppm, % diseased leaf area
Readout kind: % PUCCRT Disease level P7 at 4 ppm
Units required after the number.

Some molecules with recorded % PUCCRT Disease level P7 at 4 ppm:
CO/C=C(/C(=O)OC)c1cccc(Cl)c1CO/N=C(\COC)c1cc(F)cc(F)c1: 5%
COC/C(=N\OCc1c(Cl)cccc1/C(=N\OC)C(=O)OC)c1ccc(F)c(F)c1: 32%

Record CCOC/C(=N\OCc1c(Cl)cccc1/C(=N\OC)C(=O)OC)c1cccc(Cl)c1 , field % PUCCRT Disease level P7 at 4 ppm: 65%

Record CNC(=O)/C(=N/OC)c1cccc(Cl)c1CO/N=C(\COC)c1ccc(F)cc1 , field % PUCCRT Disease level P7 at 4 ppm: 15%

Record COC/C(=N\OCc1c(Cl)cccc1/C(=N\OC)C(=O)OC)c1cc(F)cc(F)c1 , field % PUCCRT Disease level P7 at 4 ppm: 57%

Record CNC(=O)/C(=N/OC)c1cccc(Cl)c1CO/N=C(\COC)c1ccccc1F , field % PUCCRT Disease level P7 at 4 ppm: 33%

Record CNC(=O)/C(=N/OC)c1cccc(Cl)c1CO/N=C(\COC)c1ccccc1 , field % PUCCRT Disease level P7 at 4 ppm: 17%

Record CO/C=C(/C(=O)OC)c1cccc(F)c1CO/N=C(\COC)c1ccc(F)cc1 , field % PUCCRT Disease level P7 at 4 ppm: 37%

----------
test system: Puccinia recondita; assay: Use Example 4: preventative control of brown rust on wheat (PUCCRT P7); assay type: in vivo; details: inoculated seven days after spraying, 4 ppm, % diseased leaf area
Field: label. Allowed values: Yes (% PUCCRT Disease level P7 at 4 ppm < 50%) or No (% PUCCRT Disease level P7 at 4 ppm >= 50%).

Challenge: Given CNC(=O)/C(=N/OC)c1cccc(Cl)c1CO/N=C(\COC)c1ccc(Cl)c(Cl)c1 [compound 69] , is recorded % PUCCRT Disease level P7 at 4 ppm strictly lower than 50%?
Response given: Yes

Challenge: Given CO/C=C(/C(=O)OC)c1cccc(Cl)c1CO/N=C(\COC)c1ccc(Cl)c(F)c1 [compound 110] , is recorded % PUCCRT Disease level P7 at 4 ppm strictly lower than 50%?
Response given: Yes

Challenge: Given CCOC/C(=N\OCc1c(Cl)cccc1/C(=N\OC)C(=O)NC)c1c(F)cc(F)cc1F [compound 32] , is recorded % PUCCRT Disease level P7 at 4 ppm strictly lower than 50%?
Response given: No

----------
system: Phakopsora pachyrhizi containing the amino acid substitution F129L in the mitochondrial cytochrome b protein; assay: Use Example 1: protective control of soybean rust on soybeans (PHAKPA P2); type: in vivo; details: inoculated 2 days after spraying, 4 ppm, % diseased leaf area
Our labelling divides records by % PHAKPA (F129L) Disease level P2 at 4 ppm into ranges: I: < 20%; II: ≥ 20% and < 30%; III: ≥ 30%

Challenge: For the record CO/C=C(/C(=O)OC)c1cccc(Br)c1CO/N=C(\COC)c1ccc(F)cc1 , report the class its % PHAKPA (F129L) Disease level P2 at 4 ppm corresponds to.
Response given: I

Challenge: For the record CNC(=O)/C(=N/OC)c1cccc(Cl)c1CO/N=C(\COC)c1cccc(OC)c1 , report the class its % PHAKPA (F129L) Disease level P2 at 4 ppm corresponds to.
Response given: III

Challenge: For the record COC/C(=N\OCc1c(Cl)cccc1/C(=N\OC)C(=O)OC)c1cccc(Cl)c1 , report the class its % PHAKPA (F129L) Disease level P2 at 4 ppm corresponds to.
Response given: III

Challenge: For the record CO/C=C(/C(=O)OC)c1cccc(Cl)c1CO/N=C(\COC)c1c(F)cc(Cl)cc1F , report the class its % PHAKPA (F129L) Disease level P2 at 4 ppm corresponds to.
Response given: I

Challenge: For the record CO/C=C(/C(=O)OC)c1cccc(F)c1CO/N=C(\COC)c1ccc(F)cc1 , report the class its % PHAKPA (F129L) Disease level P2 at 4 ppm corresponds to.
Response given: I

Challenge: For the record CNC(=O)/C(=N/OC)c1cccc(Cl)c1CO/N=C(\COC)c1ccc(Cl)c(F)c1 , report the class its % PHAKPA (F129L) Disease level P2 at 4 ppm corresponds to.
Response given: I

Challenge: For the record CNC(=O)/C(=N/OC)c1cccc(Cl)c1CO/N=C(\COC)c1ccc(F)cc1Cl , report the class its % PHAKPA (F129L) Disease level P2 at 4 ppm corresponds to.
Response given: II

Challenge: For the record CO/C=C(/C(=O)OC)c1cccc(Cl)c1CO/N=C(\COC1CC1)c1ccc(F)cc1 , report the class its % PHAKPA (F129L) Disease level P2 at 4 ppm corresponds to.
Response given: II

Challenge: For the record CNC(=O)/C(=N/OC)c1cccc(Cl)c1CO/N=C(\COC)c1ccc(Cl)c(Cl)c1 , report the class its % PHAKPA (F129L) Disease level P2 at 4 ppm corresponds to.
Response given: III

----------
system: Phakopsora pachyrhizi containing the amino acid substitution F129L in the mitochondrial cytochrome b protein; experiment: Use Example 1: protective control of soybean rust on soybeans (PHAKPA P2); assay type: in vivo; settings: inoculated 2 days after spraying, 4 ppm, % diseased leaf area
Readout kind: % PHAKPA (F129L) Disease level P2 at 4 ppm (%)
Respond with the bare value in %.

Record CO/C=C(/C(=O)OC)c1cccc(Cl)c1CO/N=C(\COC)c1cccc(F)c1F [compound 87] , field % PHAKPA (F129L) Disease level P2 at 4 ppm: 5

Record CO/C=C(/C(=O)OC)c1cccc(Cl)c1CO/N=C(\COC)c1ccccc1F [compound 13] , field % PHAKPA (F129L) Disease level P2 at 4 ppm: 5

Record CCOC/C(=N\OCc1c(Cl)cccc1/C(=C\OC)C(=O)OC)c1cccc(F)c1 [compound 27] , field % PHAKPA (F129L) Disease level P2 at 4 ppm: 5

----------
# % PUCCRT Disease level P7 at 4 ppm annotations
System: Puccinia recondita
Experiment: Use Example 4: preventative control of brown rust on wheat (PUCCRT P7)
Type: in vivo
Conditions: inoculated seven days after spraying, 4 ppm, % diseased leaf area
Procedure: The compound was dissolved in a mixture of acetone and/or dimethylsulfoxide and the wetting agent/emulsifier Wettol, which is based on ethoxylated alkylphenoles, in a ratio (volume) solvent-emulsifier of 99 to 1 to give a total volume of 5 ml. Subsequently, water was added to total volume of 100 ml. This stock solution was then diluted with the described solvent-emulsifier-water mixture to the final concentration given in the tables below. Use Example 4. […]
Respond with the bare value in %.

Some molecules with recorded % PUCCRT Disease level P7 at 4 ppm:
CO/C=C(/C(=O)OC)c1cccc(Br)c1CO/N=C(\COC)c1ccccc1 [compound 59]: 22
CO/C=C(/C(=O)OC)c1cccc(Br)c1CO/N=C(\COC)c1ccc(F)cc1 [compound 10]: 10

We now examine a further molecule.
Record CNC(=O)/C(=N/OC)c1cccc(Cl)c1CO/N=C(\COC)c1cccc(Cl)c1F [compound 99] , field % PUCCRT Disease level P7 at 4 ppm: 42
